TEST_SYSTEM: Cytochrome P450 2C9 (Homo sapiens)
PROCEDURE_DETAILS: Cytochrome panel assay with activity outcomes
CONDITION_CONTEXT: recombinant CYP, pro-luciferin dealkylation, luminescence, p450-cyp2c9; series mostly up to 57.1 µM
Among all 16,000 compounds or so, about 4,000 (25%) were called active. About 26% were inconclusive and are not listed. A selection follows.
PROPERTY: AC50

COMPOUND	RECORDED_VALUE
CCOC(=O)C1=C(C)N=C2c3ccccc3C(=O)C2C1c1ccc(Cl)cc1 (stereo not drawn)	0.562 µM (active)
COc1ccc2cc3cc(C(=O)NCc4ccc5c(c4)OCO5)oc3nc2c1	4.47 µM (active)
CCOC(=O)C1=C(C)N=C2c3ccccc3C(=O)C2C1c1ccc(C)cc1 (stereo not drawn)	0.891 µM (active)
COc1ccc2nc(NC(=O)CSc3nnc(C)s3)sc2c1	inactive
COc1cc(C(=O)Nc2cc(C(F)(F)F)ccc2Cl)cc(OC)c1OC	8.91 µM (active)
CC(C)(C)c1ccccc1OCCN1CCCC1	inactive
c1cnc(Nc2nc(-c3ccc4ccccc4c3)cs2)nc1	inactive
COc1ccccc1NC(=O)Nc1nnc(-c2ccco2)s1	inactive
C[C@H]1NC(=O)NC1=O	inactive
Cc1ncc([N+](=O)[O-])n1CC(C)O (stereo not drawn)	inactive
O=C(O)c1cc(=O)c2c(Cl)cc(Cl)cc2[nH]1	inactive
O=c1c(O)c(-c2ccc(O)c(O)c2)oc2cc(O)cc(O)c12	inactive
Cc1ccc(C(=O)NNC(=O)c2cc3cc4ccccc4nc3s2)cc1	inactive
COCCn1c(=O)c(-c2ccc(Cl)cc2)nc2cnc(N3CCOCC3)nc21	inactive
CCOC(=O)Cn1nnc2c(sc3nc4c(c(-c5ccc(Cl)cc5)c32)CCC4)c1=O	12.6 µM (active)
CCCN(CCC)CCCNC(=O)c1cc2cc3ccc(OC)cc3nc2o1	inactive
CCN1CCC[C@H]1CNC(=O)c1c(OC)ccc(Br)c1OC	inactive
CCn1c(SCC(=O)N/N=C/C=C\c2ccccc2[N+](=O)[O-])nnc1-c1ccccc1	inactive
CCn1c(COc2ccccc2)nnc1SCC(=O)c1cccc([N+](=O)[O-])c1	22.4 µM (active)
O=C(COc1ccccc1Cl)Nc1cc(Cl)ccc1Oc1ccccc1	2.51 µM (active)
Cn1c(CC(=O)Nc2ccc(Cl)c(Cl)c2)nnc1SCC(=O)N1CCN(c2ccccc2)CC1	5.62 µM (active)
CCCCC[C@H](CC(=O)NO)C(=O)N[C@@H](C(=O)N1CCC[C@H]1CO)C(C)C	inactive
N#C/C(=C\c1cc(Cl)cc(Cl)c1O)C(=O)NC1CCCCC1	12.6 µM (active)
Cc1ccc2nc(NC(=O)CSCC(=O)OCC(=O)c3ccc(Br)cc3)sc2c1	14.1 µM (active)
CCOC(=O)CC(=O)CSc1nnc2c(n1)[nH]c1ccccc12	8.91 µM (active)
CS(=O)(=O)N1CCC2(CC1)CN(C(=O)Nc1cccc(C#N)c1)C2	inactive
O=C(O)[C@@H](O)[C@@H](O)[C@@H](O)[C@@H](O)C(=O)O (tested in a mixture with another compound)	inactive
Cn1nc(-c2ccc(N3CCOCC3)c(NS(=O)(=O)c3ccc(Cl)cc3)c2)c2ccccc2c1=O	1 µM (active)

* * *

TEST_SYSTEM: Cytochrome P450 2C9 (Homo sapiens) (UniProt P11712)
Sequence (P11712 whole entry, looked up): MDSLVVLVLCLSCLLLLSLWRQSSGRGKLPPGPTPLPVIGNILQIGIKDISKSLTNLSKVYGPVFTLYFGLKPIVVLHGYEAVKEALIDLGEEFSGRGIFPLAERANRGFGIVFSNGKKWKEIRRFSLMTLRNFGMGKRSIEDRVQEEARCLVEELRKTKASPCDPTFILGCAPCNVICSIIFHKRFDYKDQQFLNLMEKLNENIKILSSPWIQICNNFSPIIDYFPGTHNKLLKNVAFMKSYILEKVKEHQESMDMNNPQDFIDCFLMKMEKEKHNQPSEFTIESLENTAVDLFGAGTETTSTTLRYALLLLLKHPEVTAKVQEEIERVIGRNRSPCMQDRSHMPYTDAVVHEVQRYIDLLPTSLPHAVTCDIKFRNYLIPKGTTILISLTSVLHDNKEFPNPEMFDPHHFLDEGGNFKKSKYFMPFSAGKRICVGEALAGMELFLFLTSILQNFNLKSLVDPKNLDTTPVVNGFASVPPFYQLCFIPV
PROCEDURE_DETAILS: Cytochrome panel assay with activity outcomes
CONDITION_CONTEXT: recombinant CYP, pro-luciferin dealkylation, luminescence, p450-cyp2c9; series mostly up to 57.1 µM
About 4,000 (25%) of roughly 16,000 compounds were called active. About 26% were inconclusive and are not listed. The call rests on the fitted dose curve; in most records, active means well fitted curve in the direction sought with a large enough effect; inconclusive means small, poorly fitted or top-dose-only effect, or effect the other way; inactive means no such curve, though single readings can be large or run the other way. Not all results are given here.
Classes used: active, inactive

COMPOUND	LABEL_VALUE
CN(C)CCCc1cc(C(=O)Nc2ccc(-c3ccncc3)cc2)ccc1O	inactive
CCc1cccc(CC)c1NC(=O)CN(CC(=O)O)CC(=O)O	inactive
C=C1c2cccc(O)c2C(O)=C2C(=O)[C@@]3(O)C(O)=C(C(N)=O)C(=O)[C@@H](N(C)C)[C@@H]3[C@@H](O)[C@H]12	inactive
CC(C)CN(CC(C)C)C1=N/C(=C\c2ccco2)C(=O)N1c1ccccc1	active
CCCCCC1=C2CNC(CCC)(C(=O)OC)C=C2C(C)C1=O (configuration not stated)	active
O=C(Nc1ccccc1)OC[C@H](CN1CCCCC1)OC(=O)Nc1ccccc1	inactive
C=CCSC1=Nc2sccc2C2=NC(=O)CN12	inactive
CN(c1ccc(C(=O)NCC2CCCO2)cc1)S(=O)(=O)c1ccccc1 (configuration not stated)	active
COC(=O)C1(CC(C)C)C=C2C(=C(C(C)C)C(=O)C2C)CN1 (configuration not stated)	active
CC(C)n1nnnc1-c1cc(Cl)cc(Cl)c1	inactive
CC(C)Cn1c(-c2ccc(Cl)cc2)cnc1SCC(=O)N1CCOCC1	active
O=C(c1ccco1)N1CCC2(CCN(Cc3ccncc3)CC2)CC1	active
CCCCCCCCCCCCCCC[C@@H](O)[C@@H](N)CO	inactive
CCOC(=O)c1[nH]c2ccc(Cl)cc2c1-c1ccccc1	inactive
COCC(=O)N1CCC2(CCN(Cc3ccncc3)CC2)CC1	active
O=C(CC(c1ccccc1)c1ccccc1)NCC1CCCO1 (configuration not stated)	active
CCCCCC1=C2CNC(CC(C)C)(C(=O)OC)C=C2C(C)C1=O (configuration not stated)	active
CC(C)n1cc(/C=C2/SC(=O)N(CC(=O)Nc3ccc4c(c3)OCO4)C2=O)c2ccccc21	active
CCCC[C@@H]1C[C@H]1C(NC(=O)c1ccco1)c1ccccc1 (some centres not stated)	active
O=C(NCC1CCCO1)C1CCC(=O)N1CCc1ccccc1 (configuration not stated)	inactive
COCC(=O)N1CCC2(CCN(Cc3ccccc3OC)CC2)CC1	inactive
Cc1noc(C)c1C(=O)N1CCC2(CCCN(C(=O)Nc3ccccc3)C2)CC1	inactive
Cc1c(/C=C2\SC(=O)N(CC(=O)Nc3ccc4c(c3)OCO4)C2=O)c2ccccc2n1C	inactive
Cn1cccc1C(=O)N1CCC2(CCN(Cc3nccs3)CC2)CC1	inactive
C=CCNC(=O)C1CCN(S(=O)(=O)CC)CC1	inactive
CC(C)(C)C(=O)N1CCN(c2ccc([N+](=O)[O-])c(NCC3CCCO3)c2)CC1 (configuration not stated)	active
CCn1c(C)c(/C=N/Nc2nc3ccccc3s2)c2ccccc21	inactive
O=C(CSc1c[nH]c2ccccc12)N1CCOCC1	inactive
CN1CCN(CCCN2c3ccccc3Sc3ccc(S(=O)(=O)N(C)C)cc32)CC1	inactive
CCCCCC(=O)N1CCCC(c2nc(-c3ccc(OC)cc3)no2)C1 (configuration not stated)	active
Cc1cc(C)c(S(=O)(=O)N2CCN(c3ccc([N+](=O)[O-])c(NCC4CCCO4)c3)CC2)c(C)c1 (configuration not stated)	active
C[C@](N)(COP(=O)(O)O)C(=O)O	inactive

These measurements were taken from PubChem BioAssay AID1851.
